biological target: human ACVR2A (human, UniProt P27037 20-135, limits assumed); experiment: ELISA; note: test concentration or dose not given here
Sequence (P27037 20-135 limits assumed): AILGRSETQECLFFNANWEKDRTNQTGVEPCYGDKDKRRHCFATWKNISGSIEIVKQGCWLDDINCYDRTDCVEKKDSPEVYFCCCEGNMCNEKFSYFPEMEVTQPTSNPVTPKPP
property: optical density (OD)
// units = OD; emit number, no label

Challenge: Which measured optical density value corresponds to 374_C08 (antibody, V domains shown, VH/VL only) VH: EVQLLESGGGLVQPGGSLRLSCAASGFTFDSYGMNWVRQAPGKGLEWVSGINYNSGYKSYADSVKGRFTISRDNSKNTLYLQMNSLRAEDTAVYYCARSATWHDTALDYWGQGTLVTVSS VL: DIQMTQSPSSLSASVGDRVTITCRASQSILSYVNWYQQKPGKAPKLLIYAVTSRASGVPSRFSGSGSGTDFTLTISSLQPEDFATYYCQQSYDSPLTFGGGTKVEIK ?
Response given: 3.29

Further cases:
Challenge: Which measured optical density value corresponds to 370_A06 (antibody, V domains shown, VH/VL only) VH: EVQLLESGGGLVQPGGSLRLSCAASGFTFSSYSMNWVRQAPGKGLEWVASINYNSGYKSYADSVKGRFTISRDNSKNTLYLQMNSLRAEDTAVYYCARSATWHDTHLDYWGQGTLVTVSS VL: DIQMTQSPSSLSASVGDRVTITCRASQSIVTYLNWYQQKPGKAPKLVIYAATSLASGVPSRFSGSGSGTDFTLTISSLQPEDFATYYCQQSYDLPLTFGGGTKVEIK ?
Response given: 2.59

Challenge: Which measured optical density value corresponds to 374_E09 (antibody, V domains shown, VH/VL only) VH: EVQLLESGGGLVQPGGSLRLSCAASGFTFSDYSMNWVRQAPGKGLEWVSGINYNGGYKGYADSVKGRFTISRDNSKNTLYLQMNSLRAEDTAVYYCARSATWHDTHLDYWGQGTLVTVSS VL: DIQMTQSPSSLSASVGDRVTITCRASQSIVTYLNWYQQKPGKAPKLVIYAATSRASGVPSRFSGSGSGTDFTLTISSLQPEDFATYYCQQSYDSPLTFGGGTKVEIK ?
Response given: 3.67

Challenge: Which measured optical density value corresponds to 374_C02 (antibody, V domains shown, VH/VL only) VH: EVQLLESGGGLVQPGGSLRLSCAASGFTFDSYSMNWVRQAPGKGLEWVSGINYNGGYTGYADSVKGRFTISRDNSKNTLYLQMNSLRAEDTAVYYCARSATWHDTHLDYWGQGTLVTVSS VL: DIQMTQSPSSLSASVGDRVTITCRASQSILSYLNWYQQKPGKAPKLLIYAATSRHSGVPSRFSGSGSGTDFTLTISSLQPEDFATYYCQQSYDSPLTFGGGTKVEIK ?
Response given: 3.68

Challenge: Which measured optical density value corresponds to 366_A05 (antibody, V domains shown, VH/VL only) VH: EVQLLESGGGLVQPGGSLRLSCAASGFTFSSYSMNWVRQAPGKGLEWVAGINYNSGYTGYADSVKGRFTISRDNSKNTLYLQMNSLRAEDTAVYYCARSATWHDTHLDYWGQGTLVTVSS VL: DIQMTQSPSSLSASVGDRVTITCRASQSILTYVNWYQQKPGKAPKLVIYAATSLASGVPSRFSGSGSGTDFTLTISSLQPEDFATYYCQQSYNTPLTFGGGTKVEIK ?
Response given: 2.62
